Assignment: determine reported IC50 for the given compounds.
target: cyclin D1/cdk 4 enzyme (Homo sapiens, UniProt P11802); construct: made in house; host or cells: Sf9 insect cells, recombinant baculovirus; assay: CDK4 ELISA kinase assay (phospho-Rb ser 795 detection); assay type: biochemical; settings: In Vitro Enzyme Assays, 200 μM ATP, read-out: CDK4 IC50
Sequence (P11802 whole entry, species assumed): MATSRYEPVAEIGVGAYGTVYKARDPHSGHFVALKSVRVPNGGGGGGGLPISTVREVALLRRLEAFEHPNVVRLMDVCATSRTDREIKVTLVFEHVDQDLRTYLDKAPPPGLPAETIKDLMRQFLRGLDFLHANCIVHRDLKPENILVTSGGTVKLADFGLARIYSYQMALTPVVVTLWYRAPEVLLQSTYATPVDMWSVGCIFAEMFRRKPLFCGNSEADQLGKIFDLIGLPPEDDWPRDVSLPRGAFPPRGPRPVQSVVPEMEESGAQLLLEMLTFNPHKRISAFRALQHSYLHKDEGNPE
Sequence (P24385 whole entry partner, species assumed): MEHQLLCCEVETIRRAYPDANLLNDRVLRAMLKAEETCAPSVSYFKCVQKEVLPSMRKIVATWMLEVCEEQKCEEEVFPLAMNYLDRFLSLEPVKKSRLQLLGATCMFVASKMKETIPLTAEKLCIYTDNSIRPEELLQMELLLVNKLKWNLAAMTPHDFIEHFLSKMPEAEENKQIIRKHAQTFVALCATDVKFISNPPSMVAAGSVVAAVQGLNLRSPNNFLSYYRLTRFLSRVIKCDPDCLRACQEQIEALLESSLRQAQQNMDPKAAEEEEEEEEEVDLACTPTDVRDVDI
Response body: numeric value in nM, unit text excluded.

**Q:** // returns reported IC50 for input CCCOc1cnc(CNC=C2C(=O)NC(=O)c3ccc(-n4cccc4)cc32)cc1O
**A:** 6

**Q:** Suppose we examine the compound CN1CCCN(c2ccc(N/C=C3\C(=O)NC(=O)c4ccc(Br)cc43)cc2)CC1 ; what IC50 value has been reported?
**A:** 2700

**Q:** Value lookup for IC50; key = O=C1NC(=O)c2ccc(-n3cccc3)cc2/C1=C/Nc1ccc(CN2CCCC2)cc1
**A:** 190

**Q:** What value of IC50 has been reported for the following compound? C/C=C(\C)C(=O)Nc1ccc(CN/C=C2\C(=O)NC(=O)c3ccc(I)cc32)cc1O
**A:** 40

* * *

Where a name gives a salt, the structure may show the parent alone.
reportedProperty: melting point

**Q:** Find the recorded melting point belonging to C[C@@H]1CN(c2ccc(N/C=C3\C(=O)NC(=O)c4ccc(Br)cc43)nc2)C[C@H](C)N1 and report it.
**A:** 245 to 246 °C

**Q:** Name the reported melting point value associated with the compound O=C1NC(=O)c2ccc(-c3ccsc3)cc2/C1=C/Nc1ccc(N2CCC(N3CCCC3)CC2)c(F)c1
**A:** 200 to 201 °C

**Q:** Given the entry CN(C(=O)CN1CCCCC1)c1ccc(N/C=C2\C(=O)NC(=O)c3ccccc32)cc1 , report its measured melting point.
**A:** 223 to 224 °C

**Q:** For the compound O=C1NC(=O)c2ccc(I)cc2/C1=C/Nc1ccc(OCc2ccccn2)cc1 , what melting point is on record?
**A:** 265 to 266 °C

**Q:** Item CN1CCN(c2ccc(N/C=C3\C(=O)NC(=O)c4ccc(Br)cc43)cn2)CC1 has what recorded melting point?
**A:** 265 to 266 °C

**Q:** Field request: melting point | item: COC[C@H]1CCCN1Cc1ccc(N/C=C2\C(=O)NC(=O)c3ccc(Br)cc32)cc1
**A:** 129 to 130 °C

**Q:** Report melting point for COc1cc2c(cc1-c1ccc(F)cc1)/C(=C/Nc1ccc(CN3CCCCC3)cc1)C(=O)NC2=O please.
**A:** 227 to 230 °C

**Q:** Which measured melting point value corresponds to O=C1NC(=O)c2ccc(I)cc2/C1=C/Nc1ccc(CN2CCCCC2)cc1 ?
**A:** 202 to 203 °C

**Q:** Quick one: melting point for Cc1nn(-c2ccc(NC=C3C(=O)NC(=O)c4ccc(Br)cc43)cc2)c(C)c1Cl ?
**A:** 290 to 291 °C

**Q:** melting point for COc1ccc(CN/C=C2\C(=O)NC(=O)c3ccccc32)cc1O (as salt: hydrochloride) ?
**A:** 192 to 193 °C

**Q:** Can you share its melting point? I mean this compound: CN1CCCC1c1ccc(N/C=C2\C(=O)NC(=O)c3ccc(I)cc32)nc1 (centres unmarked)
**A:** 174 to 206 °C (dec.)

**Q:** Need melting point of CN1CCN(c2cnc(N/C=C3\C(=O)NC(=O)c4ccc(I)cc43)cn2)CC1 , thanks.
**A:** 238 to 239 °C

**Q:** Quick one: melting point for COc1ccc(CN/C=C2\C(=O)NC(=O)c3ccc(Br)cc32)cc1OC(C)=O ?
**A:** 226 to 227 °C

**Q:** Record request: melting point value, item O=C1NC(=O)c2ccccc2/C1=C/Nc1ccc(CN2CCCCCC2)cc1
**A:** 198 to 200 °C

**Q:** # query: melting point of entry O=C1NC(=O)c2ccc(I)cc2/C1=C/Nc1ccc(CN2CCC(CCO)CC2)cc1
**A:** 223 to 224 °C

**Q:** Given the entry COc1cc2c(cc1-c1ccoc1)/C(=C/Nc1ccc(N3CCN(C)CC3)cc1)C(=O)NC2=O , report its measured melting point.
**A:** 198 to 220 °C

**Q:** Consider the compound shown here: COc1ccc(-c2ccc3c(c2)/C(=C/Nc2ccc(CN4CCCCC4)cc2)C(=O)NC3=O)cc1 (hydrate or solvate) What is its recorded melting point?
**A:** 168 to 169 °C

**Q:** Param item = CN1CCCC1c1ccc(N/C=C2\C(=O)NC(=O)c3ccc(-n4cccc4)cc32)nc1 (centres unmarked) ; retrieve measured melting point.
**A:** 186 to 196 °C (dec.)

**Q:** Record request: melting point value, item CCCOc1ccc(CN/C=C2\C(=O)NC(=O)c3ccc(NC(=O)c4ccco4)cc32)cc1O
**A:** 233 to 234 °C

**Q:** Find the recorded melting point belonging to CCCOc1ccc(CNC=C2C(=O)NC(=O)c3ccc(-n4cccc4)cc32)cc1O and report it.
**A:** 215 to 216 °C (dec.)

**Q:** Record request: melting point value, item Cn1ccnc1Sc1ccc(N/C=C2\C(=O)NC(=O)c3ccccc32)cc1Cl
**A:** 264 to 265 °C

**Q:** I would be grateful if you could share the reported melting point for CN1CCC(c2ccc(N/C=C3\C(=O)NC(=O)c4ccc(Br)cc43)cc2)CC1 .
**A:** 217 to 218 °C

**Q:** Would you mind telling me what melting point value was observed for COC[C@@H]1CCCN1Cc1ccc(N/C=C2\C(=O)NC(=O)c3ccc(-c4ccco4)cc32)cc1 ?
**A:** 159 to 160 °C

**Q:** Fill in: melting point of CN1CCN(c2ccc(N/C=C3\C(=O)NC(=O)c4ccc(Br)cc43)nn2)CC1 is ___
**A:** 245 to 246 °C

**Q:** Entry under review: COc1cccc(-c2ccc3c(c2)/C(=C/Nc2ccc(CN4CCCCC4)cc2)C(=O)NC3=O)c1 (hydrate or solvate) . Reported melting point?
**A:** 169 to 170 °C

**Q:** # melting point lookup, item CN(C)c1ccc(CN/C=C2\C(=O)NC(=O)c3ccc(I)cc32)cc1O
**A:** 198 to 199 °C

**Q:** So what's the measured melting point for this one? O=C1NC(=O)c2ccccc2/C1=C/Nc1ccc2ncccc2c1
**A:** 277 to 278 °C

**Q:** Need melting point of CN1CCN(c2ccc(N/C=C3\C(=O)NC(=O)c4ccc(-c5ccoc5)cc43)cc2)CC1 (as salt: sodium) , thanks.
**A:** 190 to 191 °C

**Q:** Name the recorded melting point for CCCOc1ccc(CN/C=C2\C(=O)NC(=O)c3ccc(-c4cccc(F)c4)cc32)cc1O (as salt: sodium) .
**A:** 209 to 210 °C

**Q:** I am curious: what melting point value has been reported for COc1ccc(CN/C=C2\C(=O)NC(=O)c3ccc(-c4ccc(F)cc4)cc32)cc1O (as salt: sodium) ?
**A:** 239 to 240 °C

**Q:** // melting point lookup, key: O=C1NC(=O)c2ccc(I)cc2/C1=C/NCc1ccc(OC(F)F)c(O)c1
**A:** 254 to 255 °C

**Q:** Endpoint output: melting point of CN1CCN(c2ccc(N/C=C3\C(=O)NC(=O)c4ccc(-c5coc(C=O)c5)cc43)nc2)CC1 . Value?
**A:** 183 to 184 °C

* * *

I'd appreciate it if you could supply IC50 values for the items below.
molecular target: cyclin E/CDK2 enzyme (Homo sapiens); construct: made in house; host or cells: Sf9 insect cells, recombinant baculovirus; assay: CDK2 ELISA kinase assay (phospho-Rb ser 795 detection); type: biochemical; details: In Vitro Enzyme Assay, read-out: CDK2 IC50
Report only the number, with the unit µM understood.

**Q:** So what's the measured IC50 for this one? CC(=O)Oc1cc(CN/C=C2\C(=O)NC(=O)c3ccc(Br)cc32)cc2c1OC(C)(C)O2
**A:** 23.6

**Q:** What value of IC50 has been recorded for this entry: CC1(C)Oc2cc(CN/C=C3\C(=O)NC(=O)c4ccc(Br)cc43)cc(OC(=O)C3CC3)c2O1
**A:** 24.7

**Q:** What IC50 value was documented for this compound, CN1Cc2ccc(N/C=C3\C(=O)NC(=O)c4ccc(Br)cc43)cc2C1 ?
**A:** 2.5

**Q:** Param item = O=C1NC(=O)c2ccc(Br)cc2/C1=C/Nc1ccc(-n2ccnc2)cc1 ; retrieve measured IC50.
**A:** 14.7

**Q:** # IC50 lookup, item CONCCCc1ccc(N/C=C2\C(=O)NC(=O)c3ccc(Br)cc32)cc1
**A:** 2.8

**Q:** Give its IC50 value. Item: CN(C)CCCc1ccc(N/C=C2\C(=O)NC(=O)c3ccc(Br)cc32)cc1
**A:** 38.8
